- Measured Target: T1, soluble human CD73 (Homo sapiens, UniProt P21589)
- T1 construct: The ectodomain of CD73 (aa 27-549) was expressed as a recombinant protein with a C-terminal His6× tag; His6 (C); made in house; host or cells: transiently transfected HEK cells
- T1 sequence (P21589 27-549): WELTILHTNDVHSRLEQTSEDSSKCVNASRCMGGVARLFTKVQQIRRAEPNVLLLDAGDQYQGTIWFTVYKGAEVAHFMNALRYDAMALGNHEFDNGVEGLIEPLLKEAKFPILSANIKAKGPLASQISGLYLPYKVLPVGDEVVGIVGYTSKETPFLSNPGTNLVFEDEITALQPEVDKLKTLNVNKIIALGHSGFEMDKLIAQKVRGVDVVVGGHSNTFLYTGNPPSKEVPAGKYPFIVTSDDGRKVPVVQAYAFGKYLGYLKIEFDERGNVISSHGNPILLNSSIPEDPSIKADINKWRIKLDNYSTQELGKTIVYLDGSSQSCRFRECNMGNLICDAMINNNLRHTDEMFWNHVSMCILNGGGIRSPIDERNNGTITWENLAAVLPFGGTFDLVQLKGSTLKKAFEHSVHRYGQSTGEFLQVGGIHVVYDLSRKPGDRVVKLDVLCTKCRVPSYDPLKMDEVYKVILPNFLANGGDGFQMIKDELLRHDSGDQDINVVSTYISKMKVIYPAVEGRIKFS
- Method Summary: Off-rates of soluble CD73 from immobilized Nb-rbIgG hcAb on Octet BLI
- Type: binding
- Conditions: soluble human CD73 ectodomain 200 ng/μl as analyte; Nb-rbIgG hcAb immobilized on protein A biosensor
The entries below come with measured Kdis values attached.

>  <Molecule>
SB144: CD73-specific alpaca VHH clone, family 4 in Tables 1-2, SEQ ID NO:70; tested as rabbit IgG hcAb (antibody, left off: a dimerising Fc or GST, tested as rabbit IgG hcAb) heavy: QVQLVESGGGLVQAGGSLRLSCAASGRTFSGSTMGWFRQAPGKERAFVAAIRWIGGTAKYGDSVKGRFTISIDNAKNTLYLQMNSLKPEDTAVYYCAATAGGPDYLGGRDIVYDYWGQGTQVTVSS

>  <Output Unit>
s⁻¹

>  <Kdis>
0.00023

$$$$
>  <Molecule>
SB115: CD73-specific alpaca VHH clone, family 1, SEQ ID NO:63; tested as rabbit IgG hcAb (antibody, left off: a dimerising Fc or GST, tested as rabbit IgG hcAb) heavy: DVQLQASGGGLVQPGGSLRLSCVVSGFTLDYYTIGWFRQAPGKEREGVSCINSSGGVTNYADSVKGRFTISRDNAKNTVYLQMNSLKSEDTAVYYCAAQKYYYCSRKGEVYDSWGQGTQVTVSS

>  <Output Unit>
s⁻¹

>  <Kdis>
0.00035

$$$$
>  <Molecule>
SB108: CD73-specific alpaca VHH clone, family 1, SEQ ID NO:67; tested as rabbit IgG hcAb (antibody, left off: a dimerising Fc or GST, tested as rabbit IgG hcAb) heavy: QVKLQESGGGLVHSGGSLRLSCAVSGFALDYYTIGWFRQAPGKEREGVSCISSSGSSTNYADSMKGRLTISRDNAKNTVYLQMNSLKPEDTAVYYCAAQRYYYCSDKVAVYDYWGQGTQVTVSS

>  <Output Unit>
s⁻¹

>  <Kdis>
9.7e-05

$$$$
